Data origin, for the record: ChEMBL document CHEMBL3352443

- Tested on: RAW264.7
- test: Antiinflammatory activity in mouse RAW264.7 cells assessed as inhibition of LPS-induced NO production incubated for 1 hr prior to LPS challenge measured after 24 hrs by Griess method
- Format: functional, cell-based
Could you please mark met for values of IC50 below 40 µM and not met for values at or above it?

molecule	assigned-category
C=C(C)[C@@H]1CC[C@]2(C)CC[C@]3(C)[C@H](CC[C@@H]4[C@@]5(C)CC[C@H](OC(C)=O)C(C)(C)[C@@H]5CC[C@]43C)C12 (single isomer, unassigned) [LUPENYL ACETATE]	met
C=C(C)[C@@H]1CC[C@]2(C)CC[C@]3(C)[C@H](CC[C@@H]4[C@@]5(C)Cc6c([nH]c7c(CC)cccc67)C(C)(C)[C@@H]5CC[C@]43C)[C@@H]12	met
C=C(C=O)[C@@H]1CC[C@]2(C)CC[C@]3(C)[C@H](CC[C@@H]4[C@@]5(C)CC[C@H](O)C(C)(C)[C@@H]5CC[C@]43C)[C@@H]12	not met
C=C(C)[C@@H]1CC[C@]2(C)CC[C@]3(C)[C@H](CC[C@@H]4[C@@]5(C)CC[C@H](N(O)c6ccccc6)C(C)(C)[C@@H]5CC[C@]43C)[C@@H]12	not met
C=C(C)[C@@H]1CC[C@]2(C)CC[C@]3(C)[C@H](CC[C@@H]4[C@@]5(C)Cc6c([nH]c7ccccc67)C(C)(C)[C@@H]5CC[C@]43C)[C@@H]12	met

====

- Test system: RAW264.7
- test: Antiinflammatory activity in mouse RAW264.7 cells assessed as inhibition of LPS-induced NO production incubated for 1 hr prior to LPS challenge measured after 24 hrs by Griess method
- Format: functional, cell-based

compound-structure	result-unit	IC50
C=C(C)[C@@H]1CC[C@]2(C)CC[C@]3(C)[C@H](CC[C@@H]4[C@@]5(C)Cc6nccnc6C(C)(C)[C@@H]5CC[C@]43C)[C@@H]12	µM	32.4
C=C(C)[C@@H]1CC[C@]2(C)CC[C@]3(C)[C@H](CC[C@@H]4[C@@]5(C)Cc6c([nH]c7ccc(Cl)cc67)C(C)(C)[C@@H]5CC[C@]43C)[C@@H]12	µM	35.6
C=C(C)[C@@H]1CC[C@]2(C)CC[C@]3(C)[C@H](CC[C@@H]4[C@@]5(C)Cc6c([nH]c7ccc(C)cc67)C(C)(C)[C@@H]5CC[C@]43C)[C@@H]12	µM	27.8
C=C(C)[C@@H]1CC[C@]2(C)CC[C@]3(C)[C@H](CC[C@@H]4[C@@]5(C)CC[C@H](OC(=O)CC(C)(C)C(=O)O)C(C)(C)[C@@H]5CC[C@]43C)[C@@H]12	µM	39.2
C=C(C)[C@@H]1CC[C@]2(C)CC[C@]3(C)[C@H](CC[C@@H]4[C@@]5(C)Cc6c([nH]c7c(C)ccc(C)c67)C(C)(C)[C@@H]5CC[C@]43C)[C@@H]12	µM	25.9
C=C(C)[C@@H]1CC[C@]2(C)CC[C@]3(C)[C@H](CC[C@@H]4[C@@]5(C)CCC(=O)C(C)(C)[C@@H]5CC[C@]43C)[C@@H]12	µM	38.5
C=C(C)[C@@H]1CC[C@]2(C)CC[C@]3(C)[C@H](CC[C@@H]4[C@@]5(C)Cc6c([nH]c7ccc(Br)cc67)C(C)(C)[C@@H]5CC[C@]43C)[C@@H]12	µM	23.9
C=C(C)[C@@H]1CC[C@]2(C)CC[C@]3(C)[C@H](CC[C@@H]4[C@@]5(C)Cc6c([nH]c7ccc(I)cc67)C(C)(C)[C@@H]5CC[C@]43C)[C@@H]12	µM	22.6
C=C(C)[C@@H]1CC[C@]2(C)CC[C@]3(C)[C@H](CC[C@@H]4[C@@]5(C)CC[C@H](O)C(C)(C)[C@@H]5CC[C@]43C)[C@@H]12	µM	37.3
C=C(C)[C@@H]1CC[C@]2(C)CC[C@]3(C)[C@H](CC[C@@H]4[C@@]5(C)CC[C@H](OC(=O)CCC(=O)O)C(C)(C)[C@@H]5CC[C@]43C)[C@@H]12	µM	39.2
COC(=O)[C@@H](N)CCCNC(=N)N[N+](=O)[O-]	µM	69.2

====

- test: Cytotoxicity against mouse RAW264.7 cells assessed as cell viability at IC50 by MTT assay relative to control
- Type: cell-based
- condition-set: read-out: Activity
assay-readout: viability (%)

compound-structure	assay-readout	observed-value
C=C(C)[C@@H]1CC[C@]2(C)CC[C@]3(C)[C@H](CC[C@@H]4[C@@]5(C)CC[C@H](OC(=O)CC(C)(C)C(=O)O)C(C)(C)[C@@H]5CC[C@]43C)[C@@H]12	viability	87.6
C=C(C)[C@@H]1CC[C@]2(C)CC[C@]3(C)[C@H](CC[C@@H]4[C@@]5(C)CC[C@H](O)C(C)(C)[C@@H]5CC[C@]43C)[C@@H]12	viability	87.3
C=C(C)[C@@H]1CC[C@]2(C)CC[C@]3(C)[C@H](CC[C@@H]4[C@@]5(C)CC[C@H](N(O)c6ccccc6)C(C)(C)[C@@H]5CC[C@]43C)[C@@H]12	viability	79.3

====

- test: Cytotoxicity against mouse RAW264.7 cells assessed as cell viability at IC50 by MTT assay relative to control
- Format: cell-based
- condition-set: read-out: Activity
Listed next: entries and their corresponding viability.

compound	result-unit	viability
C=C(C)[C@@H]1CC[C@]2(C)CC[C@]3(C)[C@H](CC[C@@H]4[C@@]5(C)Cc6c([nH]c7ccccc67)C(C)(C)[C@@H]5CC[C@]43C)[C@@H]12	%	91.8
C=C(C)[C@@H]1CC[C@]2(C)CC[C@]3(C)[C@H](CC[C@@H]4[C@@]5(C)Cc6c([nH]c7ccc(F)cc67)C(C)(C)[C@@H]5CC[C@]43C)[C@@H]12	%	95.2
C=C(C)[C@@H]1CC[C@]2(C)CC[C@]3(C)[C@H](CC[C@@H]4[C@@]5(C)Cc6c([nH]c7ccc(C)cc67)C(C)(C)[C@@H]5CC[C@]43C)[C@@H]12	%	89.3
C=C(C)[C@@H]1CC[C@]2(C)CC[C@]3(C)[C@H](CC[C@@H]4[C@@]5(C)CCC(=S)C(C)(C)[C@@H]5CC[C@]43C)[C@@H]12	%	94.3
C=C(C)[C@@H]1CC[C@]2(C)CC[C@]3(C)[C@H](CC[C@@H]4[C@@]5(C)Cc6nccnc6C(C)(C)[C@@H]5CC[C@]43C)[C@@H]12	%	95.2
C=C(C)[C@@H]1CC[C@]2(C)CC[C@]3(C)[C@H](CC[C@@H]4[C@@]5(C)CC/C(=N\O)C(C)(C)[C@@H]5CC[C@]43C)[C@@H]12	%	95.7
C=C(C)[C@@H]1CC[C@]2(C)CC[C@]3(C)[C@H](CC[C@@H]4[C@@]5(C)Cc6c([nH]c7ccc(Br)cc67)C(C)(C)[C@@H]5CC[C@]43C)[C@@H]12	%	91.4
C=C(C)[C@@H]1CC[C@]2(C)CC[C@]3(C)[C@H](CC[C@@H]4[C@@]5(C)CCC(=O)C(C)(C)[C@@H]5CC[C@]43C)[C@@H]12	%	89.6
C=C(C)[C@@H]1CC[C@]2(C)CC[C@]3(C)[C@H](CC[C@@H]4[C@@]5(C)CC[C@H](OC(C)=O)C(C)(C)[C@@H]5CC[C@]43C)C12 (single isomer, unassigned) [LUPENYL ACETATE]	%	80.3
C=C(C=O)[C@@H]1CC[C@]2(C)CC[C@]3(C)[C@H](CC[C@@H]4[C@@]5(C)CC[C@H](O)C(C)(C)[C@@H]5CC[C@]43C)[C@@H]12	%	95.2
C=C(C)[C@@H]1CC[C@]2(C)CC[C@]3(C)[C@H](CC[C@@H]4[C@@]5(C)Cc6c([nH]c7ccc(I)cc67)C(C)(C)[C@@H]5CC[C@]43C)[C@@H]12	%	95.2

====

Listed next: entries and their corresponding viability.
- test: Cytotoxicity against mouse RAW264.7 cells assessed as cell viability at IC50 by MTT assay relative to control
- Format: cell-based
- condition-set: read-out: Activity
assay-readout: viability

compound-structure	assay-readout	observed-value
C=C(C)[C@@H]1CC[C@]2(C)CC[C@]3(C)[C@H](CC[C@@H]4[C@@]5(C)Cc6c([nH]c7c(C)ccc(C)c67)C(C)(C)[C@@H]5CC[C@]43C)[C@@H]12	viability	93.2%
C=C(C)[C@@H]1CC[C@]2(C)CC[C@]3(C)[C@H](CC[C@@H]4[C@@]5(C)CC[C@H](OC(=O)CCC(=O)O)C(C)(C)[C@@H]5CC[C@]43C)[C@@H]12	viability	91.3%
C=C(C)[C@@H]1CC[C@]2(C)CC[C@]3(C)[C@H](CC[C@@H]4[C@@]5(C)Cc6c([nH]c7c(CC)cccc67)C(C)(C)[C@@H]5CC[C@]43C)[C@@H]12	viability	91.5%
C=C(C)[C@@H]1CC[C@]2(C)CC[C@]3(C)[C@H](CC[C@@H]4[C@@]5(C)Cc6c([nH]c7ccc(Cl)cc67)C(C)(C)[C@@H]5CC[C@]43C)[C@@H]12	viability	93.3%
